- ASSAYED_TARGET: mGluR5 receptor (Sus scrofa)
- Construct: 450 μg of protein from brain homogenate with 5 nM ^3[H]-MPEP; from tissue; host or cells: pig brain halves without medulla, cerebellum and pons
- EXPERIMENTAL_PROTOCOL: [3H]-MPEP mGluR5 receptor binding assay (pig brain homogenate)
- RUN_CONDITIONS: 5 nM [3H]-MPEP, read-out: IC50 mGluR5 Receptor (pig) [^3H]-MPEP Bond
pIC50: −log10 of the molar value. Structures can show the parent of a compound that is named as a salt.
Reported pIC50 values for a set of compounds
EXPERIMENTAL_READOUT: pIC50

{"COMPOUND": "CC(C)(C)C(=O)N(Cc1cccc(-c2ccc3ncnc(NC4CC4)c3c2)c1)C1CC1", "EXPERIMENTAL_READOUT": "pIC50", "TEST_VALUE": 5.90}
{"COMPOUND": "O=C(C=Cc1ccccc1)N(Cc1cccc(-c2ccc3ncnc(NC4CC4)c3c2)c1)C1CC1", "EXPERIMENTAL_READOUT": "pIC50", "TEST_VALUE": 5.73}
{"COMPOUND": "CCN(Cc1cccc(-c2ccc3ncnc(NC4CC4)c3c2)c1)C(C)=O", "EXPERIMENTAL_READOUT": "pIC50", "TEST_VALUE": 6.00}
{"COMPOUND": "O=C(c1ccno1)N(Cc1cc(-c2ccc3ncnc(NC4CC4)c3c2)ccc1F)C1CC1", "EXPERIMENTAL_READOUT": "pIC50", "TEST_VALUE": 6.68}
{"COMPOUND": "N#CCC(=O)N(Cc1cccc(-c2ccc3ncnc(NC4CC4)c3c2)c1)C1CC1", "EXPERIMENTAL_READOUT": "pIC50", "TEST_VALUE": 7.15}
{"COMPOUND": "O=C(CC(F)(F)F)N(Cc1cccc(-c2ccc3ncnc(NC4CC4)c3c2)c1)C1CC1 [Example 205, hydrochloride]", "EXPERIMENTAL_READOUT": "pIC50", "TEST_VALUE": 6.48}
{"COMPOUND": "CS(=O)(=O)N(Cc1cccc(-c2ccc3ncnc(NC4CC4)c3c2)c1)Cc1ccco1", "EXPERIMENTAL_READOUT": "pIC50", "TEST_VALUE": 5.44}
{"COMPOUND": "O=C(Cc1ccccc1)N(Cc1cccc(-c2ccc3ncnc(NC4CC4)c3c2)c1)C1CC1", "EXPERIMENTAL_READOUT": "pIC50", "TEST_VALUE": 5.82}

====

- ASSAYED_TARGET: mGluR5 receptor (Sus scrofa, UniProt I3LUI7)
- Construct: 450 μg of protein from brain homogenate with 5 nM ^3[H]-MPEP; from tissue; host or cells: pig brain halves without medulla, cerebellum and pons
- Sequence (I3LUI7 19-1212): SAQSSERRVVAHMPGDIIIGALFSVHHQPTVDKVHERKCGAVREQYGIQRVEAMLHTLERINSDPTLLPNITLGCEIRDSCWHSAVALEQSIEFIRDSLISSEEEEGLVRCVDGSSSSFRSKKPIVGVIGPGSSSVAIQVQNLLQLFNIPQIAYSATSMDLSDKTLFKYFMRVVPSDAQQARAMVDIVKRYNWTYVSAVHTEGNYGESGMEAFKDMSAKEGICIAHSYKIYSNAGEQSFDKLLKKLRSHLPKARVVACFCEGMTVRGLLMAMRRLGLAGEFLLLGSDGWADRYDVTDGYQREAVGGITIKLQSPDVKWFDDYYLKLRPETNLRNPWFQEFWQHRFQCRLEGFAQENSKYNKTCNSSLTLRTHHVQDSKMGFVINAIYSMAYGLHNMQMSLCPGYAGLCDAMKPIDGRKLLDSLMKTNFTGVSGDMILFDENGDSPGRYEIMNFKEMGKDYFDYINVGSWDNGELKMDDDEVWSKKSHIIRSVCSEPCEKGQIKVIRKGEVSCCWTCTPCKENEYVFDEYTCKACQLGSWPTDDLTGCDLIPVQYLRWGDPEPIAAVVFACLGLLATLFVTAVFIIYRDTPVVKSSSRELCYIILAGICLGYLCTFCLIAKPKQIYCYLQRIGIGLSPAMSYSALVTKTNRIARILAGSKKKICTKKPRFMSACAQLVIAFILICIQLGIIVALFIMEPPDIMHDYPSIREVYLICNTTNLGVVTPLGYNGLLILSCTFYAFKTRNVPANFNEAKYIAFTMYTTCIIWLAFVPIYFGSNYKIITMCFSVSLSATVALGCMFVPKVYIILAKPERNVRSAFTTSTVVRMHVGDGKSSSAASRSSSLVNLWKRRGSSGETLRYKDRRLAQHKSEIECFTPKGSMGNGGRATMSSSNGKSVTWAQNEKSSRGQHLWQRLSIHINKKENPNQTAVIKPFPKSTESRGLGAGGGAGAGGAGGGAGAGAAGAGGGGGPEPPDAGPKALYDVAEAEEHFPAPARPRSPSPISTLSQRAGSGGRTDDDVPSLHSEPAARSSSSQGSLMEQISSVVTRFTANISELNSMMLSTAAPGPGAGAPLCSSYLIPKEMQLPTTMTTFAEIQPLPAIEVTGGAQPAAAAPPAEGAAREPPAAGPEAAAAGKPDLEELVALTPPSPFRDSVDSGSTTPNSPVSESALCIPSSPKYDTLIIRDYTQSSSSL
- EXPERIMENTAL_PROTOCOL: [3H]-MPEP mGluR5 receptor binding assay (pig brain homogenate)
- RUN_CONDITIONS: 5 nM [3H]-MPEP, read-out: IC50 mGluR5 Receptor (pig) [^3H]-MPEP Bond
Where a name gives a salt, the structure may show the parent alone.
So basically, if IC50 comes in under 2 µM it's yes (1), and if it's 2 µM or more it's no (0).

{"COMPOUND": "CCCCC(=O)N(Cc1cccc(-c2ccc3ncnc(NC4CC4)c3c2)c1)C1CC1 [Example 256]", "CLASS_NAME": "yes (1)"}
{"COMPOUND": "CCCN(Cc1cccc(-c2ccc3ncnc(NC4CC4)c3c2)c1)C(C)=O [Example 887, hydrochloride]", "CLASS_NAME": "no (0)"}
{"COMPOUND": "CC(=O)N(Cc1cc(-c2ccc3ncnc(NC4CC4)c3c2)ccc1F)C1CC1 [Example 260]", "CLASS_NAME": "yes (1)"}
{"COMPOUND": "O=C(c1ccccc1)N(Cc1cccc(-c2ccc3ncnc(NC4CC4)c3c2)c1)C1CC1 [Example 274]", "CLASS_NAME": "yes (1)"}
{"COMPOUND": "CC(=O)N(Cc1cccc(-c2ccc3ncnc(NC4CC4)c3c2)n1)C1CC1 [Example 890]", "CLASS_NAME": "no (0)"}
{"COMPOUND": "O=C1COCC(=O)N1Cc1cc(-c2ccc3ncnc(NC4CC4)c3c2)ccc1F [Example 189]", "CLASS_NAME": "yes (1)"}
{"COMPOUND": "O=C1CCCC(=O)N1Cc1cc(-c2ccc3ncnc(NC4CC4)c3c2)ccc1F [Example 278]", "CLASS_NAME": "yes (1)"}
